# Read-out: CD40, CD40 (gene 958)
# procedureText: BSK_LPS_CD40: BioMAP Diversity Plus: LPS Assay for CD40 Biomarker Activity (AID 2283076)
# conditionsUsed: primary human HUVEC with PBMC; actives raise or lower the signal
Active and inactive are the calls of the source. Rule for the calls: active = hit-call score of the fitted dose curve at least 0.9, where 1 is the maximum; inactive = score below 0.9.
The reply should name one outcome from active, inactive

Some solved cases for reference:
[
  {
    "compound": "CC(C)(C)c1ccc(CSc2cnn(C(C)(C)C)c(=O)c2Cl)cc1",
    "categoryLabel": "active"
  },
  {
    "compound": "COc1ccc(C(c2ccc(OC)cc2)C(Cl)(Cl)Cl)cc1",
    "categoryLabel": "active"
  }
]

Would you mind telling me which call this test gave CC1COC(Cn2cncn2)(c2ccc(Oc3ccc(Cl)cc3)cc2Cl)O1 (configuration not stated) ?
active

Next compound: O=C(Nc1ccccc1)Nc1ccnc(Cl)c1
inactive
